Values compiled from ChEMBL document CHEMBL4303122.

# Tested on: SARS-CoV-2
# measurement_notes: Antiviral activity against SARS-CoV-2 (USA-WA1/2020 strain) measured by imaging in HRCE cells at MOI 0.4 after 96 hrs (reported as hit score from 0-1 for on-disease vs off-disease activity: scores >0.6 considered hits)
# Type: functional, Homo sapiens
Over roughly 1,600 compounds, “Hit score” has its median near 0.13; the highest 2% begin near 0.46. The sample holds the highest values, similar compounds and a random draw of the others, so the mix is not that of the screen. *1 amine or outer side, *2 acyl side, *3 side chain or, on linkers, in order; H or OH if unused. Where a SMILES comes first, the peptide text is derived from it. Bridges are numbered along the chain shown (N, C = ends). [ ]: non-standard residue; d: D form. The star is where a group is joined. pTerphenylCO(4''-OnC5H11) = CCCCCOc1ccc(-c2ccc(-c3ccc(C(=O)*)cc3)cc2)cc1; Orn(4R-OH,5R-OH) = O=C([C@H](C[C@@H](O)[C@@H](O)N[*:3])N[*:1])[*:2]; hTyr(3S-OH,4S-OH) = N[C@H](C(=O)O)[C@H](O)[C@@H](O)c1ccc(O)cc1; Pro(3S-OH,4S-Me) = C[C@H]1CN[C@H](C(=O)O)[C@H]1O; Hyp = O=C(O)[C@@H]1C[C@@H](O)CN1
experimental_endpoint: Hit score
In your answer, state the number alone without any accompanying words.

Noted Hit score for CC(C)(CO)c1cc2cc(NC(=O)C3(c4ccc5c(c4)OC(F)(F)O5)CC3)c(F)cc2n1C[C@@H](O)CO [TEZACAFTOR] , tested on SARS-CoV-2: 0.1873

Noted Hit score for CC[C@]1(O)C[C@@H]2CN(CCc3c([nH]c4ccccc34)[C@@](C(=O)OC)(c3cc4c(cc3OC)N(C)[C@H]3[C@@](O)(C(=O)OC)[C@H](OC(C)=O)[C@]5(CC)C=CCN6CC[C@]43[C@@H]65)C2)C1 [VINBLASTINE] , tested on SARS-CoV-2: 0.2235

Noted Hit score for CCCCCOc1ccc(-c2ccc(-c3ccc(C(=O)N[C@H]4C[C@@H](O)[C@@H](O)NC(=O)[C@@H]5[C@@H](O)[C@@H](C)CN5C(=O)[C@H]([C@@H](C)O)NC(=O)[C@H]([C@H](O)[C@@H](O)c5ccc(O)cc5)NC(=O)[C@@H]5C[C@@H](O)CN5C(=O)[C@H]([C@@H](C)O)NC4=O)cc3)cc2)cc1 [ANIDULAFUNGIN] ({pTerphenylCO(4''-OnC5H11)}-[Orn(4R-OH,5R-OH)]T[Hyp][hTyr(3S-OH,4S-OH)]T[Pro(3S-OH,4S-Me)]; lactam 1-C) , tested on SARS-CoV-2: 0.1907

====

Exercise: for every item that follows, state its recorded Hit score.
# Tested on: SARS-CoV-2
# measurement_notes: Antiviral activity against SARS-CoV-2 (USA-WA1/2020 strain) measured by imaging in HRCE cells at MOI 0.4 after 96 hrs (reported as hit score from 0-1 for on-disease vs off-disease activity: scores >0.6 considered hits)
# Type: functional, Homo sapiens
Over roughly 1,600 compounds, “Hit score” has its median near 0.13; the highest 2% begin near 0.46. The entries come from a sample that favours the highest values as a whole.
In your answer, state the number alone without any accompanying words.

The molecule Nc1nc(=O)c2c([nH]1)NC[C@H](CNc1ccc(C(=O)N[C@@H](CCC(=O)O)C(=O)O)cc1)N2C=O [LEVOLEUCOVORIN] showed Hit score equal to 0.1157

The molecule CC1(C)O[C@@H]2[C@@H](CO[C@@]3(COS(N)(=O)=O)OC(C)(C)O[C@@H]23)O1 [TOPIRAMATE] showed Hit score equal to 0.1748

The molecule CC(C)OC(=O)[C@H](C)N[P@](=O)(OC[C@H]1O[C@@H](n2ccc(=O)[nH]c2=O)[C@](C)(F)[C@@H]1O)Oc1ccccc1 [SOFOSBUVIR] showed Hit score equal to 0.2045

The molecule CC(COc1ccccc1Cc1ccccc1)N1CCCCC1 (stereo not drawn) [BENPROPERINE] showed Hit score equal to 0.02777

The molecule CCCCc1nc(C)c(CC(=S)N(C)C)c(=O)n1Cc1ccc(-c2ccccc2-c2nnn[nH]2)cc1 showed Hit score equal to 0.1262

The molecule C[C@]12CC[C@H](O)CC1=CC[C@@H]1[C@@H]2CC[C@]2(C)C(c3cccnc3)=CC[C@@H]12 [ABIRATERONE] showed Hit score equal to 0.3975

The molecule Cc1ccc(/C=C2\CNC/C(=C\c3ccc(C)cc3)C2=O)cc1.Cl showed Hit score equal to 0.05741

The molecule Cc1c(Cl)c(C)[n+]([O-])c(Cl)c1-c1noc(-c2cc(O)c(O)c([N+](=O)[O-])c2)n1 [OPICAPONE] showed Hit score equal to -0.07412
